Target: T1, TNKS SAM Y1073A, O95271
T1 chain: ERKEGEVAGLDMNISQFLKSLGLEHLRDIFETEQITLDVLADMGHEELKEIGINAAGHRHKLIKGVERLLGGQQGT
Assay: ITC
Details: chain shown with the change; N = 0.72±0.01
measure: Kd (nM)
// return numeric value only (unit: nM, not printed)

Need Kd, item TNKS SAM V1056W (domain or fragment) ERKEGEVAGLDMNISQFLKSLGLEHLRDIFETEQITLDWLADMGHEELKEIGINAYGHRHKLIKGVERLLGGQQGT
820
